Assay: small-molecule microarray binders of probe aEGFR, primary screen, biochemical, biotinylated probe, 635/667 nm fluorescence (AID 1097);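 also: probe is a biotinylated anti-EGFR antibody binding compounds printed on slides; score combines fluorescence near 667 nm and signal to noise of each spot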
Conditions: higher = more signal

{"molecule": "O=C1[C@H]2[C@H]3[C@H](O)[C@H](O)CC(=NO[C@@H]4O[C@H](CO)[C@@H](O)[C@H](O)[C@H]4O)[C@H]3CC[C@H]2C(=O)N1c1cccc(Oc2ccccc2)c1", "composite z-score": -0.0549}
{"molecule": "CCN1C(=O)[C@H]2[C@H]3[C@H](O)[C@H](O)CC(=NNC(=O)OCc4ccc(OC)cc4)[C@@H]3CC[C@H]2C1=O", "composite z-score": -0.113}
{"molecule": "CC=CC1=C(CO)C(=O)[C@@H]2O[C@@H]2C1=O", "composite z-score": 0.0083}
{"molecule": "CC(C)(C)N1C(=O)[C@H]2[C@H]3[C@H](O)[C@H](O)CC(=O)[C@@H]3CC[C@H]2C1=O", "composite z-score": -0.147}
{"molecule": "CO[C@@H]1C=CCC(=O)N[C@@H](C)C(=O)OC[C@@H](OC)[C@H](C)CCCC(=O)OC[C@H]1C", "composite z-score": -0.0485}
{"molecule": "COC(=O)[C@H](C)NC(=O)CCC1CC(OC(=O)NCCc2ccc(F)cc2)CC2(CCCC(COC(=O)NCCC(C)C)O2)O1 (some centres not stated)", "composite z-score": -0.111}
{"molecule": "CO[C@@H]1COC(=O)CC=C[C@@H](C)[C@H](OC)COC(=O)[C@@H](C)COC(=O)CC=C[C@H]1C", "composite z-score": -0.616}
